Biological target: human Kallikrein-2 6-His protein (soluble hK2) (human) (UniProt P20151)
Test: SPR, antibody captured by anti-Fc, soluble hK2 injected
pKd values, listed per item
pKd field: float, defined as -log10 of concentration (mol/L).

Worked examples follow.
[[record]]
binder = "KL2B242 (antibody, human IgG4 S228P, lambda, F234A L235A, V domains shown) VH: QVQLQESGPGLVKPSETLSLTCTVSGGSISSYYWSWLRQPAGSGLEWIGRLYVSGFTNYNPSLKSRVTLSLDPSRNQLSLKLSSVTAADTAVYYCAGDSGNYWGWFDPWGQGTLVTVSS VL: SYELTQPPSVSVSPGETASITCSGDQLGENYACWYQQKPGQSPVLVIYQDSKRPSGIPERFSGSNSGNTATLTISGTQALDEADYYCQAWDNSIVVFGGGTKLTVLG"
numeric_value = 10.40

[[record]]
binder = "KL2B30 (antibody, human IgG4 S228P, kappa, F234A L235A, V domains shown) VH: QVQLQESGPGLVKPSETLSLTCTVSGGSISSYYWSWIRQPPGKGLEWIGYIYYSGSTNYNPSLKSRVTISVDTSKNQFSLKLSSVTAADTAVYYCAGTTIFGVVTPNFYYGMDVWGQGTTVTVSS VL: DIQMTQSPSFLSASVGDRVTITCRASQGISSYLAWYQQKPGKAPKFLIYAASTLQSGVPSRFSGSGSGTEFTLTISSLQPEDFATYYCQQLNSYPLTFGGGTKVEIKR"
numeric_value = 9.34


So what does the record say about pKd for KL2B53 (antibody, human IgG4 S228P, kappa, F234A L235A, V domains shown) VH: EVQLVESGGGVVQPGRSLRLSCVASGFTFSSYDIHWVRQAPGKGLEWVAIISYDGSKKDYTDSVKGRFTISRDNSKNTLYLQMDSLRVEDSAVYSCARESGWSHYYYYGMDVWGQGTMVTVSS VL: DIVMTQSPSSLSASVGDRVTITCRASQDISNYLAWYQQKPGKVPKFLIYAASTLHSGVPSRFSGSGSGTDFTLTISSLQPEDVATYYCQKYNSAPYTFGQGTRLEIKR ?
10.10
